Below, each of the compounds is paired with its reported growth value.
- Test system: EKVX NSCLC
- assay-summary: NCI-60 one-dose screen, 48 h (100 = growth as untreated, 0 = no growth, -100 = all killed)
- test-context: 10 µM unless noted
About 83,000 compounds went through this panel and 20% of them were active in at least one assay; those are over-represented in the sample as a whole.
Just the number please, in %, no unit attached.

Before answering, review these 3 worked examples.
compound	endpoint-name	meas-value
COC(=O)c1ccc2c(c1)Oc1ccc(Cl)cc1-c1cc(C)nn1-2	growth	66.9
C[C@H]1C=C(C[C@@H](O)CCCCCCCCCC[C@@H](O)[C@H]2CCC(=O)O2)C(=O)O1	growth	91
CCC1S/C(=N\N=C(/C)c2cccs2)N(c2ccccc2)C1=O (configuration not stated)	growth	105

What value of growth has been reported for the following compound? CN[C@@H](CCCNC(N)=NC/C=C(/C)CCC=C(C)C)C(=O)N(C)[C@@H](CCCNC(N)=NCC=C(C)C)C(=O)N[C@H](C)[C@H](OS(=O)(=O)O)c1ccc(OS(=O)(=O)O)c(COS(=O)(=O)O)c1
113

What value of growth has been reported for the following compound? O=C(NCCNc1nccc(-c2c(-c3cccc(O)c3)nc3sccn23)n1)Nc1cccc(C(F)(F)F)c1
91.2

What value of growth has been reported for the following compound? COc1ccc(-c2coc3c(CO)c(O)ccc3c2=O)cc1
72.1

What value of growth has been reported for the following compound? O=C(CSc1nnc(-c2cc3c([nH]c4ccccc43)c(-c3cccc(O)c3)n2)n1-c1ccccc1)c1ccccc1
69.3

What value of growth has been reported for the following compound? Cc1ccccc1C[P+](c1ccccc1)(c1ccccc1)c1ccccc1
29.5

* * *

- Tested on: KM12 colon
- assay-summary: NCI-60 one-dose screen, 48 h (100 = growth as untreated, 0 = no growth, -100 = all killed)
- test-context: 10 µM unless noted
This is part of a sample that, as a whole, favours compounds with a hit. Of some 83,000 tested, about 20% had one in any assay.
endpoint-name: growth (%)
Just the number please, in %, no unit attached.

compound	endpoint-name	meas-value
O=C(NC(=S)Nc1ccc(Cl)cc1)c1ccccc1	growth	124
CC(C)(CCN=C(N)Nc1ccccn1)c1ccc(C(F)(F)F)cc1	growth	13.5
C=C1C(=O)O[C@H]2[C@H]1CC/C(COC(=O)c1ccc3ccccc3c1)=C\CC[C@@]1(C)O[C@@H]21	growth	32.8

Now consider a different compound.
What value of growth has been reported for the following compound? COc1cc(/C=C/C(=O)c2ccc(Oc3ncnc4ccccc34)cc2)cc(OC)c1OC
19.4

* * *

- Test system: UACC-257 melanoma
- assay-summary: NCI-60 one-dose screen, 48 h
- test-context: 10 µM unless noted
- Protocol: Cells are grown in 96 well plates and exposed to the test compound for 48 hours. Compounds are tested at a single concentration, which is 10^-5 M for most compounds. The reported endpoint is percent growth (GI% or GIPRCNT), where numbers from 0 - 100% represent growth inhibition, and numbers from -100% - 0 represent cell death. For example, a value of 40 represents 60% growth inhibition. A value of 0 means no net growth occurred over the course of the experiment. […]
This is part of a sample that, as a whole, favours compounds with a hit. Of some 83,000 tested, about 20% had one in any assay. The source made the active and inactive calls. The calls were made as follows: active = growth percent below 10; inactive = the rest.
// classify into TRUE = active, FALSE = inactive

compound	label-value
Nc1n[nH]c2cccc(C#Cc3cccc(NC(=O)c4cccc(C(F)(F)F)c4)c3)c12	FALSE
O=C(c1ccccc1)[C@H]1[C@@H]2CCCN2[C@]2(C(=O)Nc3ccc(F)cc32)[C@]12C(=O)Nc1ccccc12	FALSE
NC(CSC(c1ccccc1)(c1ccccc1)c1ccc(F)cc1)C(=O)O (stereo unspecified)	TRUE
CC(C(C(=O)N1CCCCC1)N1CCCCC1)N1CCCCC1 (stereo unspecified)	FALSE

# outcome recorded in this test, key = COc1cc(/C=C/C(=O)c2ccc(Oc3ncnc4ccccc34)cc2)cc(OC)c1OC
FALSE

# outcome recorded in this test, key = O=C1C(Cl)=C(Nc2ccccc2)C(=O)C(Cl)=C1Nc1ccccc1
FALSE
